Numbers sourced from PubChem BioAssay.

# assay explanation: viability loss in pontine glioma line – cell-based, JHH-DIPG-1, MIPE4.0, CellTiter-Glo, qHTS, dose response (AID 1347062);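 on AC50: cells exposed to compound for two days before readout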
# conditions used: JHH-DIPG-1 viability, CellTiter-Glo ATP luminescence
Inconclusive results are not listed. Active and inactive are the calls of the source. Cut-off not given; nearly all actives show AC50 up to about 27 µM.
Valid outcomes are listed here; reply with one: YES = active, NO = inactive

compound: C=C(c1ccc(C(=O)O)cc1)c1cc2c(cc1C)C(C)(C)CCC2(C)C
assigned category: NO
//
compound: Nc1ccccc1NC(=O)c1ccc(CNC(=O)OCc2cccnc2)cc1
assigned category: YES
//
compound: O=S(=O)(N=Cc1c(O)ccc2ccccc12)c1cccs1
assigned category: NO
//
compound: O=c1c(-c2ccc(O)cc2)coc2cc(OC3O[C@H](CO)[C@@H](O)[C@H](O)[C@H]3O)cc(O)c12 (some centres undefined)
assigned category: NO
//
compound: CC(C)(OCc1nn(Cc2ccccc2)c2ccccc12)C(=O)O
assigned category: NO

Q: Look up the recorded call for O=C(Nc1ncc(-c2cc(C(F)F)nn2-c2c(Cl)cccc2Cl)s1)C1CC1 in this test.
Ans: YES

Q: Identify the outcome logged in this assay for the compound shown: O=C(NCc1ccccc1)[C@H](Cc1ccccc1)NC(=O)[C@H]1O[C@@H]1C(=O)NCCc1ccc(O)cc1
Ans: NO

Q: Recorded test outcome, item NC(=O)c1cccc2cn(-c3ccc([C@@H]4CCCNC4)cc3)nc12
Ans: NO

Q: Identify the outcome logged in this assay for the compound shown: O=C(c1cncc(Br)c1)N1CCC(N2CCCC2)CC1
Ans: NO

Q: Which outcome did this test record for the compound Nc1nc2c(c(=O)[nH]1)N(C=O)[C@H](CNc1ccc(C(=O)N[C@@H](CCC(=O)O)C(=O)O)cc1)CN2 ?
Ans: NO

Q: What call does the record list for CC(C)(O)Cn1c(NC(=O)c2ccc(-c3cn[nH]c3)s2)nc2cc(CN3CCOCC3)ccc21 ?
Ans: YES

Q: Entry CC[C@H](CO)Nc1nc(NCc2ccccc2)c2ncn(C(C)C)c2n1 : call = ?
Ans: YES

Q: Given Cc1ccnc(NS(=O)(=O)c2ccc(NC(=O)Nc3ccc(S(=O)(=O)Nc4nccc(C)n4)cc3)cc2)n1 , state the outcome it received in this test.
Ans: YES
